Entries and their Ki
target: human V1a receptor (Homo sapiens); construct: expressed in transfected cells; host or cells: HEK293 cells, transiently transfected; cell membranes prepared; experiment: human V1a receptor binding study (3H-Vasopressin, SPA beads, HEK293 membranes); conditions: membranes of HEK293 cells transiently transfected with human V1a receptor; 3H-Vasopressin; Ki calculated using the Cheng-Prussoff equation; read-out: pKi (hV1a) (converted)
Sequence (P37288 whole entry): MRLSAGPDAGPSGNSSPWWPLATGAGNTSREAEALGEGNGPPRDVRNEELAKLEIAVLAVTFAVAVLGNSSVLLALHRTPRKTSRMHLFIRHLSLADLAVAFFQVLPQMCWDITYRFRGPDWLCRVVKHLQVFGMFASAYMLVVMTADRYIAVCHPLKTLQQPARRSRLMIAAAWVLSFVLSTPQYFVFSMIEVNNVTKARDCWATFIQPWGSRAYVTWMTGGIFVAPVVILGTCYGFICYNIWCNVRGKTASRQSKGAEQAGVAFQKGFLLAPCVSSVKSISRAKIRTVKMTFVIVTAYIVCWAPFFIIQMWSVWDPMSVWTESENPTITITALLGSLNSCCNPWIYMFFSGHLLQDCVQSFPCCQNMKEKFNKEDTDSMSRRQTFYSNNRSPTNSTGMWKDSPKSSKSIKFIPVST
Where a name gives a salt, the structure may show the parent alone.
Numbers only; they are read as nM.

# annotated cases, reported Ki shown
{"columns": ["MOLECULE", "Ki, nM"],
 "data": [
  ["CC(C)O[C@H]1CC[C@H](c2nnc3n2-c2ccc(Cl)cc2CN(Cc2ccccn2)C3)CC1", 1.41],
  ["CN1Cc2cc(Cl)ccc2-n2c(nnc2[C@H]2CC[C@@H](OC3CCC3)CC2)C1", 7.94],
  ["CN1Cc2cc(Cl)ccc2-n2c(nnc2[C@H]2CC[C@H](OC(F)(F)F)CC2)C1", 26.3],
  ["Clc1ccc2c(c1)CNCc1nnc([C@H]3CC[C@@H](OC4CCCCC4)CC3)n1-2 [Example 43, hydrochloride]", 174],
  ["CC(C)(C)OC(=O)N1Cc2cc(Cl)ccc2-n2c(nnc2[C@H]2CC[C@H](OC(C)(C)C)CC2)C1", 3.8]
]}

Input line: What measured Ki goes with CN1Cc2cc(Cl)ccc2-n2c(nnc2[C@H]2CC[C@H](OC3CCOCC3)CC2)C1 ?
Output line: 20

Input line: So what's the measured Ki for this one? CN1Cc2cc(Cl)ccc2-n2c(nnc2[C@H]2CC[C@H](OC3CCCC3)CC2)C1
Output line: 0.794

Input line: // Ki lookup, key: CC(CC(F)(F)F)O[C@H]1CC[C@H](c2nnc3n2-c2ccc(Cl)cc2CN(C)C3)CC1 (mixture of isomers)
Output line: 6.76

Input line: Given the entry Clc1ccc2c(c1)CNCc1nnc([C@H]3CC[C@@H](OC4CCC4)CC3)n1-2 [Example 34, hydrochloride] , report its measured Ki.
Output line: 145

Input line: Report Ki for CC(=O)OCC(=O)N1Cc2cc(Cl)ccc2-n2c(nnc2[C@H]2CC[C@H](OC(C)C)CC2)C1 please.
Output line: 3.47
